Biological target: T1, A139 iCAPS (CB1 with ICL3 native sequence replaced with BRIL) (human, UniProt P21554 99-414)
T1 construct: The insert stands inside the chain in place of ICL3
T1 sequence (P21554 whole entry): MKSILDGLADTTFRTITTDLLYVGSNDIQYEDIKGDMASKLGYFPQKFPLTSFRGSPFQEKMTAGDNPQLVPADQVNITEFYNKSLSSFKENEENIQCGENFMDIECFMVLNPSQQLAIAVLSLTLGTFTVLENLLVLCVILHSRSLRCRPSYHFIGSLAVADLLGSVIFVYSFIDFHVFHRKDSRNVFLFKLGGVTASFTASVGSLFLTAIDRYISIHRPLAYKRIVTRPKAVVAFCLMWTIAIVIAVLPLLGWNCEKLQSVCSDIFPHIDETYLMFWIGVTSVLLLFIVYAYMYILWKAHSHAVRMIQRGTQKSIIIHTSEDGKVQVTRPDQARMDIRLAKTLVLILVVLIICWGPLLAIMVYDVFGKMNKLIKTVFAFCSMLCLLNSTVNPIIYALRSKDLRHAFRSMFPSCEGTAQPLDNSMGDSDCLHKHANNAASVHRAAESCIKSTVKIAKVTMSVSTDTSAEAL
Test: ELISA, purified IgG on A139 CB1 iCAPS
property label: pEC50
Answers are plain numbers, as −log10 of the molar value.

Form field pEC50, entry PA2LR3-P4G10 (chimeric) (antibody, V domains shown) VH: EVQLQQFGAELVRPGSSVKISCKASGYAFSYYWMNWVKQRPGQGLEWIGQIYPGDGDTNYNGKFKGKATLTADKSSSTAYMQLSSLTSEDSAVYFCARSHGNYFAYWGQGTLVTVSA VL: DIVLTQSPAIMSASLGERVTMTCTASSSVSSSYLHWYQQKPGSSPKLWIYSTSNLASGVPARFSGSGSGTSYSLTISSMEAEDAATYYCQQWSSNPLTFGAGTKLELKR : 8.87

Values compiled from patent US20260176352A1.
